Molecular target: native human ESRRG protein (Homo sapiens, UniProt P62508)
Sequence (P62508 1-458): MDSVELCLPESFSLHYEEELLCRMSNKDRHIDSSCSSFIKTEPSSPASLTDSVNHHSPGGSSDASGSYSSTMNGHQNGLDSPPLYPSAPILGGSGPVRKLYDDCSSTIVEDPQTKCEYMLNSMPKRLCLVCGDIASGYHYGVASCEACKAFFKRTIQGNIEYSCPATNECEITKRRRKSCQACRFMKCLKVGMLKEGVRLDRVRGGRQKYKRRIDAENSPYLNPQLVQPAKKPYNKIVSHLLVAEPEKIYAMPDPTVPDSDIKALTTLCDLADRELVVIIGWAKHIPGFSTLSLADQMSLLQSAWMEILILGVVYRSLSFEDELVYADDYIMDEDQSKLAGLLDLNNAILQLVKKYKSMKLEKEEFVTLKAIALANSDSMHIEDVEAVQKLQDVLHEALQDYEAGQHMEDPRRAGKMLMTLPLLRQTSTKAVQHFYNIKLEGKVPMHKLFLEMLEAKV
Assay: peptide microarray screening for ESRRG binding (Iteration 1 and 2)
Conditions: Iteration 1 primary screen; fluorescence intensity units
Some substances, each annotated with its measured Sample B (Probe) Signal.

// below: answered substances
>>> print(df.to_string())
                              substance                           target_of_assay        observed_property  test_result
0                              NSLRSHLL  native human ESRRG protein (Homo sapiens, UniProt P62508)  Sample B (Probe) Signal     1,673.50
1  Ac-NSLKKHLL-NH2 (C-terminus assumed)  native human ESRRG protein (Homo sapiens, UniProt P62508)  Sample B (Probe) Signal     9,219.14
2                              ANNFLLLH  native human ESRRG protein (Homo sapiens, UniProt P62508)  Sample B (Probe) Signal     1,624.73
3                              ANNLKLLH  native human ESRRG protein (Homo sapiens, UniProt P62508)  Sample B (Probe) Signal     1,672.30
4                              ANNSSLLH  native human ESRRG protein (Homo sapiens, UniProt P62508)  Sample B (Probe) Signal     1,153.13

What reported Sample B (Probe) Signal corresponds to ANNSLLLH on native human ESRRG protein (Homo sapiens, UniProt P62508)?
1,321.14

Now try AANYVLLL .
2,199.01

Now try Ac-NIKVNANN-NH2 (C-terminus assumed) .
598.87

Now try Ac-LLHKSKSQ-NH2 (C-terminus assumed) .
962.22
